target: human TLR8 (Homo sapiens (Human), UniProt Q9NR97); assay: TLR8 inhibition reporter assay (HEK-Blue, SEAP); conditions: HEK-Blue cells overexpressing human TLR8, R848 15.9 μM stimulation
Sequence (Q9NR97 27-1041): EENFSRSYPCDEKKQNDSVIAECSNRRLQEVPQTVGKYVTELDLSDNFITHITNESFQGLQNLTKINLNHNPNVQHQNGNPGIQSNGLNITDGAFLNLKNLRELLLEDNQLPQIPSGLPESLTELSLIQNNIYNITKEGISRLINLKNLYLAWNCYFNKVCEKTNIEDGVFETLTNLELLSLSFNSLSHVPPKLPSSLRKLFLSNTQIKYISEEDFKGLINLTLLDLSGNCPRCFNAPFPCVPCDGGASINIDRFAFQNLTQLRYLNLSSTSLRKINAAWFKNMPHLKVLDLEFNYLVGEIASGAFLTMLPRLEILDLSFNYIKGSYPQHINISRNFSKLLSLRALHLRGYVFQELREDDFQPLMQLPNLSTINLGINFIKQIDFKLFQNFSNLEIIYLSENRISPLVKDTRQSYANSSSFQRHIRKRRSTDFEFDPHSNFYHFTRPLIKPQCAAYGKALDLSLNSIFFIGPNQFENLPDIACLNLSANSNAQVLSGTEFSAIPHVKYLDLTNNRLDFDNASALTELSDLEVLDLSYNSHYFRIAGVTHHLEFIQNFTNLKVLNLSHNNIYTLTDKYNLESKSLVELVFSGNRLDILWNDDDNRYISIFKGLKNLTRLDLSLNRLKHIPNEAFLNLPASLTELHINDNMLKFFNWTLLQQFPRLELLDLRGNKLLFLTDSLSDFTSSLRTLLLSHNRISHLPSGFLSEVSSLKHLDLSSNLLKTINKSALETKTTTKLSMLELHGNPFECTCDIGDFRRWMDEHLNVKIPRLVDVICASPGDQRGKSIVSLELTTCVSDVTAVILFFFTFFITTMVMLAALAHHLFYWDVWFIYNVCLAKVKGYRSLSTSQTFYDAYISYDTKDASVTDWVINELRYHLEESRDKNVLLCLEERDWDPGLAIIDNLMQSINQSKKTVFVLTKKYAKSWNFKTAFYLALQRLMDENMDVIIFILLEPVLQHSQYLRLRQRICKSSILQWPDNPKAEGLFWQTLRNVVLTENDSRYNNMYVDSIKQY
Consider the cut-off 100 nM. If the recorded IC50 is strictly smaller, the label is fulfilled; if not, the label is not fulfilled.

Is 100 nM strictly greater than the molecule's reported IC50? molecule: COc1ccc(-c2[nH]c3ccc(-c4nnc(C(=O)NC5CCN(C(C)C)CC5)o4)cc3c2C(C)C)cc1OC fulfilled

Is 100 nM strictly greater than the molecule's reported IC50? molecule: Cc1cc(-c2[nH]c3ccc(-c4cc5c(s4)CN(C(C)C)CC5)cc3c2C(C)C)cc(C)n1 fulfilled

Is 100 nM strictly greater than the molecule's reported IC50? molecule: COc1ccc(-c2ccc3[nH]c(-c4ccnc5[nH]ncc45)c(C(C)C)c3c2)cn1 not fulfilled

Is 100 nM strictly greater than the molecule's reported IC50? molecule: COc1ccc(-c2[nH]c3ccc(-c4nnc(C5CCN(C6CCN(C(C)C)CC6)CC5)o4)cc3c2C(C)C)cc1OC fulfilled

Is 100 nM strictly greater than the molecule's reported IC50? molecule: Cc1cc(-c2[nH]c3ccc(-c4nnc(C5CCCN(C(C)C)C5)[nH]4)cc3c2C(C)C)ccn1 (stereo not shown) [Example 205] fulfilled

Is 100 nM strictly greater than the molecule's reported IC50? molecule: COc1ccc(-c2[nH]c3ccc(-c4cccc(C(=O)N5CCN(CC(=O)NC(C)C)CC5)c4)cc3c2CC(F)(F)F)cc1OC not fulfilled

Is 100 nM strictly greater than the molecule's reported IC50? molecule: Cc1cc(-c2[nH]c3ccc(-c4ccc(N5CCNCC5)nc4)cc3c2C(C)C)ccn1 fulfilled

Is 100 nM strictly greater than the molecule's reported IC50? molecule: CC(C)c1c(-c2ccnc3[nH]ncc23)[nH]c2ccc(-c3cccc(S(N)(=O)=O)c3)cc12 fulfilled

Is 100 nM strictly greater than the molecule's reported IC50? molecule: CC(C)c1c(-c2ccnc3[nH]ncc23)[nH]c2ccc(-c3ccc4ncccc4c3)cc12 not fulfilled

Is 100 nM strictly greater than the molecule's reported IC50? molecule: Cc1cc(-c2[nH]c3ccc(-c4ccnc(N)c4)cc3c2C(C)C)ccn1 fulfilled

Is 100 nM strictly greater than the molecule's reported IC50? molecule: COc1ccc(-c2[nH]c3ccc(-c4cnc(N5CCN(CC(C)C)CC5)cc4C)cc3c2C(C)C)cc1OC fulfilled

Is 100 nM strictly greater than the molecule's reported IC50? molecule: Cc1cc(-c2[nH]c3ccc(-c4nnc([C@@H]5CCCNC5)o4)cc3c2C(C)C)ccn1 fulfilled

Is 100 nM strictly greater than the molecule's reported IC50? molecule: Cc1cc(-c2[nH]c3ccc(-c4nnc(C(=O)NC5CCNC5)s4)cc3c2C(C)C)ccn1 (stereo not shown) fulfilled

Is 100 nM strictly greater than the molecule's reported IC50? molecule: CC(C)c1c(-c2ccnc3[nH]ncc23)[nH]c2ccc(-c3nnc(CNCC#N)o3)cc12 not fulfilled

Is 100 nM strictly greater than the molecule's reported IC50? molecule: CC(C)c1c(-c2ccnc3[nH]ncc23)[nH]c2ccc(-c3ccc4[nH]c(=O)cc(O)c4c3)cc12 not fulfilled

---

Biological target: UniProtKB Q9NR96
Sequence (Q9NR96 26-1032): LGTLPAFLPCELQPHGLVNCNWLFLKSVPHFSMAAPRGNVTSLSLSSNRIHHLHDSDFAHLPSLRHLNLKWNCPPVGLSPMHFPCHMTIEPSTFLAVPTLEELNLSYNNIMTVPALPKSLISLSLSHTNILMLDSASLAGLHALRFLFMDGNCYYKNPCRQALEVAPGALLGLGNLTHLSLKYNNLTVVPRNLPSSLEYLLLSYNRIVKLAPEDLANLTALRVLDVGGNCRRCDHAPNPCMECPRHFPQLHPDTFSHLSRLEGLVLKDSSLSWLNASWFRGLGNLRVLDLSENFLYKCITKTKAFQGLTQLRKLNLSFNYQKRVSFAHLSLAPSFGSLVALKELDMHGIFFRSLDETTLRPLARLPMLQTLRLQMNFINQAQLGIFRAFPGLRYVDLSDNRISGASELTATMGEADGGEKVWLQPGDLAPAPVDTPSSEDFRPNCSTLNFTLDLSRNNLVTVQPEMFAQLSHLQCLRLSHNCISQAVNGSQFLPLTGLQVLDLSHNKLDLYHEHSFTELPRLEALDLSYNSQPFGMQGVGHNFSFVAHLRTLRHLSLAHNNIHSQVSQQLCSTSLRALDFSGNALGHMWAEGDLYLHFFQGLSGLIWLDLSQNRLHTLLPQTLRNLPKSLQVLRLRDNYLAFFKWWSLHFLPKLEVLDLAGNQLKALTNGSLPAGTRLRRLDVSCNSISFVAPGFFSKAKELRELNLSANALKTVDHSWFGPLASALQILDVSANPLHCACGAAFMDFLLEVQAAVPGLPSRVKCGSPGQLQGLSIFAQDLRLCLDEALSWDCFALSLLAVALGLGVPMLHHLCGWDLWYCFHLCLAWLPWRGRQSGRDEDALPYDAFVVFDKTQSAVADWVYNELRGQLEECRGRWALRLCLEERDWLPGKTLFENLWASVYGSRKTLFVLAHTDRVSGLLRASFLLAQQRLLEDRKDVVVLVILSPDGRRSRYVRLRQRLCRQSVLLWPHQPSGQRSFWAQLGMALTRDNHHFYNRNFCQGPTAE
Assay: TLR9 inhibition reporter assay (HEK-Blue, SEAP)
Type: cell-based
Details: HEK-Blue cells overexpressing human TLR9, ODN2006 5 nM stimulation
Text: TLR7/8/9 Inhibition Reporter Assays HEK-Blue™-cells (Invivogen) overexpressing human TLR7, TLR8 or TLR9 receptors were used for screening inhibitors of these receptors using an inducible SEAP (secreted embryonic alkaline phosphatase) reporter gene under the control of the IFN-β minimal promoter fused to five NF-κc Band AP-1-binding sites. […]
recorded.endpoint: IC50 (nM)
Form entry: value (nM) — number only.

Value lookup for IC50; key = COc1ccc(-c2[nH]c3ccc(-c4nnc(C5CCN(C6CCN(C(C)C)CC6)CC5)o4)cc3c2C(C)C)cc1OC 266

Value lookup for IC50; key = Cc1cc(-c2[nH]c3ccc(-c4nnc(C5CCCN(CC(=O)N(C)C)C5)[nH]4)cc3c2C(C)C)ccn1 (stereo not drawn) 872

Value lookup for IC50; key = Cc1cc(-c2[nH]c3ccc(-c4nnc(C5CCCN(C(C)C)C5)o4)cc3c2C(C)C)ccn1 (stereo not drawn) [Example 292] 551

Value lookup for IC50; key = CNc1ccc(-c2ccc3[nH]c(-c4ccnc(C)c4)c(C(C)C)c3c2)cn1 39700

Value lookup for IC50; key = CNC(=O)CN1CCC(c2nnc(-c3ccc4[nH]c(-c5ccnc6[nH]ncc56)c(C(C)C)c4c3)o2)CC1 4760

Value lookup for IC50; key = Cc1cc(-c2[nH]c3ccc(-c4nnc(C5CCN(CC(=O)N(C)C)CC5)o4)cc3c2C(C)C)ccn1 2000

Value lookup for IC50; key = CC(C)c1c(-c2ccnc3[nH]ncc23)[nH]c2ccc(-c3noc(C4CCN(C(=O)CN(C)C)CC4)n3)cc12 1020

Value lookup for IC50; key = COc1ccc(-c2[nH]c3ccc(-c4nc(C(=O)NC5CCN(C(C)C)CC5)cs4)cc3c2C(C)C)cc1OC 2250

Value lookup for IC50; key = CC(C)c1c(-c2ccnc3[nH]ncc23)[nH]c2ccc(-c3noc([C@@H]4CCCNC4)n3)cc12 1900

Value lookup for IC50; key = Cc1cc(-c2[nH]c3ccc(-c4nnc(C5CCN(C(=O)CN(C)C)CC5)[nH]4)cc3c2C(C)C)ccn1 1500

Value lookup for IC50; key = COc1ccc(-c2[nH]c3ccc(-c4nnc(C(=O)N5CC6CNCC6C5)o4)cc3c2C(C)C)cc1OC (stereo not drawn) 454

Value lookup for IC50; key = COc1ccc(-c2[nH]c3ccc(-c4ccc(OC5CCN(C)CC5)cc4)cc3c2C(C)C)cc1OC 3900

Value lookup for IC50; key = COc1ccc(-c2[nH]c3ccc(-c4cccc(C(=O)NCCNC(C)=O)c4)cc3c2CC(F)(F)F)cc1OC 32900

Value lookup for IC50; key = Cc1cc(-c2[nH]c3ccc(-c4ccnc(C5CCNCC5)c4)cc3c2C(C)C)cc(C)n1 181

Value lookup for IC50; key = Cc1cc(-c2[nH]c3ccc(-c4nnc(C(=O)NC5CCN(C(C)C)CC5)o4)cc3c2C(C)C)ccn1 303

Value lookup for IC50; key = COc1ccc(-c2[nH]c3ccc(-c4nnc(C[C@@H]5CCCN5)o4)cc3c2C(C)C)cc1OC 1070

Value lookup for IC50; key = Cc1cc(-c2[nH]c3ccc(-c4nnc([C@H]5CCNC5)o4)cc3c2C(C)C)ccn1 651

Value lookup for IC50; key = Cc1cc(-c2[nH]c3ccc(-c4nnc(C5CCN(Cc6ccccc6)CC5)[nH]4)cc3c2C(C)C)ccn1 690

Value lookup for IC50; key = Cc1cc(-c2[nH]c3ccc(-c4ccnc(N5CCNCC5)c4)cc3c2C(C)C)ccn1 790

Value lookup for IC50; key = Cc1cc(-c2[nH]c3ccc(-c4ccc(N5CCCC5)nc4)cc3c2C(C)C)cc(C)n1 2340

Value lookup for IC50; key = Cc1cc(-c2[nH]c3ccc(-c4ccc(N5CCN(C(C)C)CC5)nc4)cc3c2C(C)C)cc(C)n1 289

Value lookup for IC50; key = Cc1cc(-c2[nH]c3ccc(-c4nc(C(=O)NCC(C)CN)co4)cc3c2C(C)C)cc(C)n1 (stereo not drawn) 1080

Value lookup for IC50; key = Cc1cc(-c2[nH]c3ccc(-c4nnc(C(=O)N5CCC(NC(C)C)CC5)o4)cc3c2C(C)C)cc(C)n1 367

Value lookup for IC50; key = CC(C)c1c(-c2ccnc3[nH]ncc23)[nH]c2ccc(-c3nnc(C(=O)N4CCCN(C)CC4)o3)cc12 776

Value lookup for IC50; key = Cc1cc(-c2[nH]c3ccc(-c4cc5c(s4)CNCC5)cc3c2C(C)C)ccn1 623

Value lookup for IC50; key = COc1ccc(-c2[nH]c3ccc(-c4nnc(C(=O)N5CCCN(C)CC5)o4)cc3c2C(C)C)cc1OC 2020

Value lookup for IC50; key = COc1ccc(-c2[nH]c3ccc(-c4ccc(C5=CC(C)(C)NC(C)(C)C5)cc4)cc3c2C(C)C)cc1OC 4770
